Molecular target: T1, Human OSM (human, UniProt P13725 26-221)
T1 construct: Recombinant human OSM; also called hOSM; human Oncostatin M
T1 sequence: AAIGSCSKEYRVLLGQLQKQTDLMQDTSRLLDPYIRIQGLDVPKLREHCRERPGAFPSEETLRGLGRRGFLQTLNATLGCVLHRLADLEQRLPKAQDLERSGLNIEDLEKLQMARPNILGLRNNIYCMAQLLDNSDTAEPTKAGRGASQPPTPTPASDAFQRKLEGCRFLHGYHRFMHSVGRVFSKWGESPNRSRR
Experiment: SPR (ProteOn XPR36 or Biacore T100), captured supernatant, OSM as analyte
Listed here are binders together with their documented Kd.
Dear colleague, please return just the value in nM, with no unit written.

The following binders have reported results that may help.
{"Binder": "Pos 101 Gly (antibody, V domains shown, also called CDRH3 D101>G) VH: EVQLVESGGGLVQPGGSLRLSCAASGFTFSSYAMSWVRQAPGKGLEWVATISDGGSFTYYLDNVRGRFTISRDNAKNSLYLQMNSLRAEDTAVYYCARDVGHTTFWYFGVWGRGTLVTVSS VL: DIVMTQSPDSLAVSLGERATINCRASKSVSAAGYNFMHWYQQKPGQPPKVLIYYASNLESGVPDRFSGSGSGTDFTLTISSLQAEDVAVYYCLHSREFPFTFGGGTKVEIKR", "Metric": "Kd", "Test result": 0.71}
{"Binder": "Pos 95 Met (antibody, V domains shown, also called CDRH3 D95>M) VH: EVQLVESGGGLVQPGGSLRLSCAASGFTFSSYAMSWVRQAPGKGLEWVATISDGGSFTYYLDNVRGRFTISRDNAKNSLYLQMNSLRAEDTAVYYCARMVGHTTFWYFDVWGRGTLVTVSS VL: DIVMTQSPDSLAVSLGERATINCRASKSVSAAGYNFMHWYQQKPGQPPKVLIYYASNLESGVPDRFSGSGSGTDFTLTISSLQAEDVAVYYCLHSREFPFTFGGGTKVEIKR", "Metric": "Kd", "Test result": 0.649}

Read the next record carefully.
Problem: Give the reported Kd for this binder. Pos 102 Ala (antibody, V domains shown, also called CDRH3 V102>A) VH: EVQLVESGGGLVQPGGSLRLSCAASGFTFSSYAMSWVRQAPGKGLEWVATISDGGSFTYYLDNVRGRFTISRDNAKNSLYLQMNSLRAEDTAVYYCARDVGHTTFWYFDAWGRGTLVTVSS VL: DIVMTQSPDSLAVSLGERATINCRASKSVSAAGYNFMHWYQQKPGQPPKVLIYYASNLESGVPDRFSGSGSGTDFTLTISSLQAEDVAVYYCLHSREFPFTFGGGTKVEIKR
Result: 0.338
